tested on: RXF 393 renal; assay: NCI tumour cell line growth inhibition, 48 h
Readout: TGI

Sample answers from the record:
Cc1cc(C2(c3cc(C)c(O)c(C(=O)O)c3)OS(=O)(=O)c3ccccc32)cc(C(=O)O)c1O    > 100 µM
C/C=C(/CCCCNCCCC)[Si](C)(C)C    21 µM
CC1=CCS(=O)(=O)C1C(O)C1=C(C)CCCC1(C)C (configuration not stated)    > 100 µM
COc1ccc(-c2c(C#N)c(S)n(C3OC(CO)C(O)C(O)C3O)c(=O)c2C#N)cc1 (configuration not stated)    > 100 µM
O=c1[nH]cc(OCC(F)(F)F)c(=O)[nH]1    > 100 µM

Incoming: What value of TGI has been reported for the following molecule? `CC[CH2][Pb]([CH2]CC)([CH2]CC)[NH]S(=O)(=O)c1ccc(C)cc1`
Outgoing: 0.0869 µM

Incoming: Quick check: TGI of `Nc1nc(Nc2cccc(F)c2)nc2ccccc12` ?
Outgoing: 45.3 µM

Incoming: Which TGI is listed for `CO[C@@H](c1ccccc1)[C@H](O)[C@](O)(c1ccccc1)P(=O)(OC)OC` ?
Outgoing: > 100 µM

Incoming: Quick check: TGI of `O=C1c2ccccc2C(=O)C1C(c1ccc([N+](=O)[O-])cc1)C1C(=O)c2ccccc2C1=O` ?
Outgoing: 32.9 µM

Incoming: Please report the recorded TGI for `CN(C)c1ccc(N=Nc2c([O-])ccc3ccccc23)cc1.[C-]#[O+].[C-]#[O+].[Ir]` .
Outgoing: 32.9 µM

Incoming: Would you kindly share the measured TGI for CN(C)C(=O)C1CCC(=C2C(=O)OC(C)(C)OC2=O)N1C (configuration not stated) ?
Outgoing: > 100 µM

Incoming: Given CCC1=CC2CC(C(=O)OC)C1(N(C)C)C2=O (configuration not stated) , state its recorded TGI.
Outgoing: > 100 µM

Incoming: Consider the molecule `Cn1c(=O)nc2n(-c3ccc(Cl)cc3Cl)c3ccccc3nc-2c1=O` and give its measured TGI.
Outgoing: 15.4 µM
